Tested on: dd-mice
Test: Acute toxicity (minimum lethal dose)
Type: in vivo
Settings: male dd-mice, ip, mortality for seven days
TEST_READOUT: Acute Toxicity MLD ip (minimum lethal dose)

// known answers, use as guide
CC(CC1OCCc2ccccc21)NCC(O)c1ccc(F)cc1 (stereo not drawn) ... > 100 mg/kg
CC(CC1OCCc2ccccc21)NC[C@H](O)c1ccc(O)cc1 (stereo partly drawn) ... > 100 mg/kg

Pending molecule:
Which Acute Toxicity MLD ip (minimum lethal dose) is reported for this molecule? CC(CC1c2ccccc2CCN1C)NCC(O)c1ccc(O)cc1 (stereo not drawn)
> 100 mg/kg
